src = patent US20170320870A1

Molecular target: LRRK2 wild type (recombinant human, catalytic domain amino acids 970-2527, GST-tagged) (Homo sapiens, UniProt Q5S007)
Construct: The wild type used was recombinant human, catalytic domain (amino acids 970-2527) GST-tagged, expressed in insect cells; GST
Sequence (Q5S007 970-2527): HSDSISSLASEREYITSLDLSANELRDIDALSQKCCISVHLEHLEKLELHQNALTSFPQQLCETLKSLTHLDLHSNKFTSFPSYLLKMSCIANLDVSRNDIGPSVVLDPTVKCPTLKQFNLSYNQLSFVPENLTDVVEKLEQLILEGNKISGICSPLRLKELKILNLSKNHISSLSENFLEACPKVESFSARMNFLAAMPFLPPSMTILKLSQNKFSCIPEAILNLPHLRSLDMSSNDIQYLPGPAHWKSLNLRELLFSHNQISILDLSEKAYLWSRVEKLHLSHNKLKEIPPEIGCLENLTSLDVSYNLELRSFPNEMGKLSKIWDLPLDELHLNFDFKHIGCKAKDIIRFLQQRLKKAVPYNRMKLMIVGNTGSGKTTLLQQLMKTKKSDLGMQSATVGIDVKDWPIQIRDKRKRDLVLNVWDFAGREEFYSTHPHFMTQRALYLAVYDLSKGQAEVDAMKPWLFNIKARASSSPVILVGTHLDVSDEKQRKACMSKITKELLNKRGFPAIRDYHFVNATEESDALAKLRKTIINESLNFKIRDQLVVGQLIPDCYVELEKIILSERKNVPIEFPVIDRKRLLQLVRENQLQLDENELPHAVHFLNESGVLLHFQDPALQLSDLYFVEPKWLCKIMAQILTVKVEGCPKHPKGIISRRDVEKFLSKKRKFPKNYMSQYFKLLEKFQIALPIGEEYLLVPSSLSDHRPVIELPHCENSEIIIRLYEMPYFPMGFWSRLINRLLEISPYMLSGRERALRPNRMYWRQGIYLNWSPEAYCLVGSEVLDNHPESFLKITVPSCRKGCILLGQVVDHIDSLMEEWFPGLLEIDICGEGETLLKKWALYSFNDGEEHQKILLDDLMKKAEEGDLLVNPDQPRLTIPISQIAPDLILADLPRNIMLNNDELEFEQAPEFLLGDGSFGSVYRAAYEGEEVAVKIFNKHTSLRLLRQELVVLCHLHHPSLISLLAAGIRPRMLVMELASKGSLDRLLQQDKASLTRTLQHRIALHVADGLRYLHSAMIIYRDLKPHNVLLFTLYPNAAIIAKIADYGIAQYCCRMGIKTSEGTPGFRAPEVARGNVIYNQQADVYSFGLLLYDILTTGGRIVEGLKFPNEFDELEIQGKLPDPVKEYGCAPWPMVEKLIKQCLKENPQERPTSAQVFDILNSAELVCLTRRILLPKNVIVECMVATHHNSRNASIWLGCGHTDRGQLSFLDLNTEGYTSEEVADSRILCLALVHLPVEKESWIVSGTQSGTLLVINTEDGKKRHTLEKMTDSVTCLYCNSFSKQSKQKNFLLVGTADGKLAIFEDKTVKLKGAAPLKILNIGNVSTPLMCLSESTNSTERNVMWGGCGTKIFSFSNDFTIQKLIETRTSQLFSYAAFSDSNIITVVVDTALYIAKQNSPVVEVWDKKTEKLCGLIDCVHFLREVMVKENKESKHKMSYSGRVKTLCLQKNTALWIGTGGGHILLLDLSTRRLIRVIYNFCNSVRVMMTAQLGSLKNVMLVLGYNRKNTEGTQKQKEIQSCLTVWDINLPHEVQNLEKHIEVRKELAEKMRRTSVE
Test: LRRK2 wild type protein kinase assay ([γ-33P] ATP, peptide substrate […]), IC50
Settings: LRRK2 (variant not given); read-out: Potency score, LRRK2 IC50
For each record, write down the corresponding IC50.

Any idea what its IC50 is? The molecule is O=C(Nc1ccc(CCc2n[nH]c3ccnc(NC4CCCCC4)c23)cc1)c1cccc(F)c1
< 100 nM

What about this molecule? CC(C)n1cc(-c2n[nH]c3ccnc(NC4CCCCC4)c23)cn1
< 100 nM

Now try Cc1n[nH]c2ccnc(NCCc3ccc(F)cc3)c12 .
100 to 1000 nM

// query: CN1CCC(C(=O)Nc2ccc(CCc3n[nH]c4ccnc(NC5CCCCC5)c34)cc2)CC1
100 to 1000 nM

Check CC(=O)NCCNc1nccc2[nH]nc(C)c12 too.
1000 to 10000 nM

Here is the next molecule: O=C(CCc1n[nH]c2ccnc(NC3CCCCC3)c12)Nc1cccnc1
1000 to 10000 nM

Next: Cc1n[nH]c2ccnc(Nc3cccc(C(F)(F)F)c3)c12
100 to 1000 nM

Same thing, different molecule: COc1ccc(-c2n[nH]c3ccnc(NC4CCCCC4)c23)cc1
100 to 1000 nM

Then Cc1n[nH]c2ccnc(Oc3cccc(F)c3)c12 ?
100 to 1000 nM
